Reported B-score binding assay is given for each of the following molecules.
Biological target: human NTCP (Homo sapiens, UniProt Q14973)
Sequence (Q14973 1-349): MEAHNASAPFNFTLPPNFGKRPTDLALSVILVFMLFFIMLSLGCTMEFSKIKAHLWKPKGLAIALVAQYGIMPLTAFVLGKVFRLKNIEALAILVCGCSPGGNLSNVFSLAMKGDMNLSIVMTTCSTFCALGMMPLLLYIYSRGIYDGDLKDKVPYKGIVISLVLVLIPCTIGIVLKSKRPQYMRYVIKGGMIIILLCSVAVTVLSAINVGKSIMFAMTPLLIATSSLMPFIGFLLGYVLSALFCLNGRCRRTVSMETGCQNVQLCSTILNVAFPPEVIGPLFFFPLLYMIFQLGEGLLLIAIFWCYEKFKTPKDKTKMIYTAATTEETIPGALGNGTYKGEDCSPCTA
Experiment: Screening fluorescent competitive Myrcludex B-FITC binding assay (96-well, 10 µM drug)
Settings: screen, 10 µM drug, Myrcludex B-FITC binding
Counter-ions that a name gives are not always drawn.
result.type: B-score binding assay

INSERT INTO results (molecule, result_type, value) VALUES
  ('CN(C)CCOC(=O)COc1ccc(Cl)cc1.Cl [Meclofenoxate hydrochloride]', 'B-score binding assay', -1.168),
  ('C[C@H]1NC(=O)NC1=O [Methylhydantoin-5-(D)]', 'B-score binding assay', -1.862),
  ('CN(C)CCC=C1c2ccccc2COc2ccccc21 [Doxepin hydrochloride]', 'B-score binding assay', 0.002),
  ('Cc1ccc(C)c(OCCCC(C)(C)C(=O)O)c1 [Gemfibrozil]', 'B-score binding assay', -2.286),
  ('C[N+](C)(CCOc1ccccc1)Cc1ccccc1.O=C([O-])c1cc2ccccc2cc1O [Bephenium hydroxynaphthoate]', 'B-score binding assay', -0.482),
  ('CC(C)C(=O)Nc1ccc([N+](=O)[O-])c(C(F)(F)F)c1 [Flutamide]', 'B-score binding assay', 0.039),
  ('COc1ccc2cc([C@H](C)C(=O)O)ccc2c1 [Naproxen]', 'B-score binding assay', -0.298),
  ('CCCCC1C(=O)N(c2ccccc2)N(c2ccccc2)C1=O [Phenylbutazone]', 'B-score binding assay', -0.956),
  ('CNCCCC1c2ccccc2C=Cc2ccccc21 [Protriptyline hydrochloride]', 'B-score binding assay', -0.431),
  ('CC(C)NC[C@H](O)COc1ccc(CC(N)=O)cc1 [(S)-(-)-Atenolol]', 'B-score binding assay', -0.394),
  ('CNC(C)CCC=C(C)C.CNC(C)CCC=C(C)C.O=C(O)[C@@H](O)[C@H](O)[C@H](O)[C@@H](O)C(=O)O [Isometheptene mucate]', 'B-score binding assay', -0.672),
  ('O=C(O)c1ccccc1OP(=O)(O)O [Fosfosal]', 'B-score binding assay', -0.072),
  ('O=C1CCc2cc(OCCCCc3nnnn3C3CCCCC3)ccc2N1 [Cilostazol]', 'B-score binding assay', -0.418),
  ('CC[C@H](C)C(=O)O[C@H]1CCC=C2C=C[C@H](C)[C@H](CC[C@@H]3C[C@@H](O)CC(=O)O3)[C@H]21 [Mevastatin]', 'B-score binding assay', 1.164),
  ('COCCc1ccc(OCC(O)CNC(C)C)cc1.COCCc1ccc(OCC(O)CNC(C)C)cc1.O=C(O)C(O)C(O)C(=O)O (racemic) [Metoprolol-(+,-) (+)-tartrate salt]', 'B-score binding assay', -0.835),
  ('CCOC(=O)C1=C[C@]2(CC)CCCN3CCc4c(n1c1ccccc41)[C@@H]32 [Vinpocetine]', 'B-score binding assay', -1.57),
  ('Cc1ccsc1/C=C/C1=NCCCN1C [Morantel tartrate]', 'B-score binding assay', -0.484),
  ('Nc1ccc(S(=O)(=O)Nc2nccs2)cc1 [Sulfathiazole]', 'B-score binding assay', 0.039),
  ('CO/N=C(\C(=O)N[C@@H]1C(=O)N2C(C(=O)O)=C(COC(C)=O)CS[C@H]12)c1csc(N)n1 [Cefotaxime sodium salt]', 'B-score binding assay', -1.895),
  ('CSc1ccc2c(c1)C(N1CCN(C)CC1)Cc1ccccc1S2.O=C(O)/C=C\C(=O)O (stereo not shown) [Methiothepin maleate]', 'B-score binding assay', -1.545),
  ('C/C=C(/C(=C/C)c1ccc(O)cc1)c1ccc(O)cc1 [Dienestrol]', 'B-score binding assay', -0.567),
  ('C[C@]12CCC(=O)C=C1CC[C@@H]1[C@@H]2C(=O)C[C@]2(C)C(=O)CC[C@@H]12 [Adrenosterone]', 'B-score binding assay', -0.699),
  ('C[C@H]1c2cccc(O)c2C(=O)C2=C(O)[C@]3(O)C(=O)C(C(N)=O)=C(O)[C@@H](N(C)C)[C@@H]3[C@@H](O)[C@@H]21 [Doxycycline hydrochloride]', 'B-score binding assay', -1.041),
  ('COc1ccc2c(c1)C(=O)N(CCc1ccc(S(=O)(=O)NC(=O)NC3CCCCC3)cc1)C(=O)C2(C)C [Gliquidone]', 'B-score binding assay', 1.024),
  ('NCCCC(O)(P(=O)(O)O)P(=O)(O)O [Alendronate sodium]', 'B-score binding assay', -0.968);
